src = the supplement of paper PMC10567573

B1: KLHL14 (parent)
chain: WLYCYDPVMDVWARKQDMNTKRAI

Variants of: B1
Experiment: protein stability index of a GFP-peptide fusion (GPS, HEK-293T) (PSI 1-6); higher = more stable;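 note: lentivirally expressed fusions sorted by FACS into six bins by GFP to DsRed ratio, PSI derived from sequencing read proportions per bin multiplied by bin number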
Settings: c terminus: a fixed tail appended
Outcome Measure: protein stability index

- Q16T: 1.83
- V11T: 2.32
- K21P: 1.58
- N19V: 2.55
- Y3D: 2.44
- K15E: 2.21
- D17G: 1.97
- A13M: 1.96
- W12A: 1.89
- M18Q: 2.08
- R22I: 1.74
- Q16F: 1.85
- V11S: 2.52
- T20C: 1.62
- R14I: 1.84
- A13C: 1.81
- Y5C: 2.25
- N19S: 1.83
- Y3L: 2.15
- T20F: 1.44
- Y3S: 1.77
- M9C: 2.35
- M18F: 2.56
- N19I: 1.57
- K15D: 1.97
- A23V: 1.63
- Y3V: 2.86
- W12G: 2.1
- D10L: 2.82
- N19P: 1.93
- M9K: 2.02
- K21H: 1.94
- Y3G: 2.01
- L2Q: 2.55
- M9V: 1.65
- D10K: 3.09
- W1F: 1.99
- A23G: 1.51
- W1M: 2.62
- W1Q: 3.33
- V11F: 2.32
- P7M: 1.98
- A23W: 1.37
- A13V: 2.13
- M18N: 2.77
- Y3P: 2.7
- D6N: 1.78
- M18A: 2.15
- M18V: 2.19
- L2S: 2.39
- P7T: 1.64
- W12F: 1.86
- T20S: 1.99
- V8N: 1.75
- W12C: 2.09
- D10Q: 2.74
- Y3E: 2.33
- R22W: 1.69
- C4R: 1.63
- R14H: 1.97
- L2F: 1.45
- I24P: 2.68
- I24T: 1.87
- R14P: 2.23
- Y5N: 2.08
- D17C: 1.74
- P7H: 2.1
- K15C: 2.29
- L2I: 1.84
- D17P: 2.16
- L2W: 1.56
- I24D: 2.92
